FYI, the data here is from patent US20240174622A1.

System: LNCaP tumor-transplanted mouse
protocol.text: Internal radioactivity distribution using LNCaP tumor-transplanted mouse
Type: in vivo
assay.setup: 96 h after administration
experimental.endpoint: Kidney (% ID/g)
Answers are plain numbers, in % ID/g.

Some solved cases for reference:
>  <compound>
O=C(O)CC[C@H](NC(=O)N[C@@H](CCCCNC(=O)[C@H](Cc1ccc2ccccc2c1)NC(=O)[C@H]1CC[C@H](CNC(=O)CCC(C(=O)O)N2CCN(CC(=O)O)CCN(C(CCC(=O)N[C@@H](CCCCNC(=O)CCCc3ccc(I)cc3)C(=O)O)C(=O)O)CCN(CC(=O)O)CC2)CC1)C(=O)O)C(=O)O (stereo partly shown) [[^111In]In-PSMA-NAT-DA1, metal not drawn]

>  <system.name>
LNCaP tumor-transplanted mouse

>  <experimental.endpoint>
Kidney

>  <unit.name>
% ID/g

>  <reading>
22.0

$$$$
>  <compound>
O=C([O-])CN(CCN(CCc1ccc(NC(=O)CCCCCNC(=O)CCC(=O)NCCCC[C@H](NC(=O)N[C@@H](CCC(=O)O)C(=O)O)C(=O)O)cc1)CCN(CC(=O)[O-])Cc1cccc(C(=O)[O-])n1)Cc1cccc(C(=O)[O-])n1.[111In+3] [[^111In]In-Neunpa-1, reference compound]

>  <system.name>
LNCaP tumor-transplanted mouse

>  <experimental.endpoint>
Kidney

>  <unit.name>
% ID/g

>  <reading>
15.1

$$$$

Below are some compounds; for each one, tell me its Kidney.
1. O=C([O-])CN(Cc1cccc(C(=O)[O-])n1)C[C@H](Cc1ccc(NC(=O)[C@H](CCCCNC(=O)CCC(=O)NCCCC[C@H](NC(=O)N[C@@H](CCC(=O)O)C(=O)O)C(=O)O)NC(=O)COCCOCCOCC(=O)N[C@@H](CCCCNC(=O)CCCc2ccc(I)cc2)C(=O)O)cc1)N(CC(=O)[O-])Cc1cccc(C(=O)[O-])n1.[111In+3] [[^111In]In-Octapa-3]
2. O=C([O-])CN1CCN(C(CCC(=O)NCCCC[C@H](NC(=O)N[C@@H](CCC(=O)O)C(=O)O)C(=O)O)C(=O)[O-])CCN(CC(=O)[O-])CCN(C(CCC(=O)Nc2ccccc2)C(=O)[O-])CC1.[111In+3] (stereo partly shown) [[^111In]In-PSMA-DB, reference compound]

Return:
1: 4.33; 2: 7.04
